Entries and their measured inhibition at 10 µM follow.
- Measured On: 17β-hydroxysteroid dehydrogenase type 3 (Homo sapiens, UniProt P37058)
- Construct: expressed in transfected cells; host or cells: MCF-7
- Sequence (P37058 whole entry): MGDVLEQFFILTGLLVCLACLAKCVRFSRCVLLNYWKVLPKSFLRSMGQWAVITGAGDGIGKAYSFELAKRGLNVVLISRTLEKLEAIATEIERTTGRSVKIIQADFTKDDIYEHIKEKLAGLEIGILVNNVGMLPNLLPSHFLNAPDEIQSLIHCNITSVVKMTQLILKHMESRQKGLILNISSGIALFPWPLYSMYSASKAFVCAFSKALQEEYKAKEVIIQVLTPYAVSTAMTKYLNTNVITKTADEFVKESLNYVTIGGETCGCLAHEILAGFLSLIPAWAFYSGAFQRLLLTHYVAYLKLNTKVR
- Protocol Details: Inhibition of 17β-HSD type 3 in MCF-7 cells stably expressing the isoenzyme (HPLC, tritium labeled androstenedione)
- Format: cell-based
- Experimental Context: MCF7, 10 μM compound, 2 nM androstenedione, read-out: % Inhibition of the 17β-HSD enzyme type 3 (HSD3)
- Text: Biological Testing Materials and Methods 1. Inhibition of the 17β-hydroxysteroid dehydrogenase type 1, type 2 and type 3 enzyme The compounds were screened in respect of 17β-HSD enzyme activity in vitro on established M CF-7 cell lines, each stably expressing one of the respective 17β-HSD isoenzymes. The interconversion of substrate by each isoenzyme and the 17β-HSD inhibiting activity of chemical compounds in these cell lines were detected by HPLC system. […]
Reported Property: inhibition at 10 µM (%)

Compound: CCOC(=O)C1CCCn2c1nc1sc3c(c1c2=O)CCCC3 (centres unmarked)
Reported Result: 13.5
//
Compound: CC1CCc2c(sc3nc4n(c(=O)c23)CCCCC4)C1=O (centres unmarked)
Reported Result: 9.5
//
Compound: O=c1c2c3c(sc2nc2n1CCCCCC2)C(O)CCC3 (centres unmarked)
Reported Result: 11.7
//
Compound: Cn1cnc2sc3c(c2c1=O)CCC(C=O)=C3Cl
Reported Result: 14.2
//
Compound: CCOC(=O)C1CCc2nc3sc4c(c3c(=O)n2CC1)CCCC4 (centres unmarked)
Reported Result: 22.9
//
Compound: CCCSC1=C(C=O)CCc2c1sc1nc3n(c(=O)c21)CCC(C(=O)OCC)CC3 (centres unmarked)
Reported Result: 100
//
Compound: O=CC1=C([S+]([O-])c2ccccc2)c2sc3nc4n(c(=O)c3c2CC1)CCCCC4 (centres unmarked)
Reported Result: 31.2
//
Compound: O=Cc1ccc2c(sc3nc4n(c(=O)c32)CCCCC4)c1Sc1ccccc1
Reported Result: 25.5
//
Compound: COC(=O)C1CCc2nc3sc4c(c3c(=O)n2CC1)CCC(C=O)=C4OC (centres unmarked)
Reported Result: 59.6
//
Compound: CC1CCc2nc3sc4c(c3c(=O)n2CC1)CCCC4=O (centres unmarked)
Reported Result: 32.4
//
Compound: O=c1c2c3c(sc2nc2ccccn12)CCCC3
Reported Result: 7.9
//
Compound: O=c1c2c3c(sc2nc2n1CCC2)CCCC3
Reported Result: 40.4
//
Compound: O=CC1=C(Cl)c2sc3nc4n(c(=O)c3c2CC1)CCCCCC4C=O (centres unmarked)
Reported Result: 31.7
//
Compound: O=c1c2c3c(sc2nc2n1CCCCC2)CCCCC3
Reported Result: 47
//
Compound: CC(C)(C)C1CCc2c(sc3nc4n(c(=O)c23)CCCCC4)C1 (centres unmarked)
Reported Result: 25.8
//
Compound: O=C1CCCc2c1sc1nc3n(c(=O)c21)CCC3
Reported Result: 40.2
//
Compound: CCOC(=O)C1CCc2nc3sc4c(c3c(=O)n2CC1)CCCC4=O (centres unmarked)
Reported Result: 10.5
//
Compound: O=C1CCCc2c1sc1nc3n(c(=O)c21)CCCC3
Reported Result: 47.4
//
Compound: CCc1nc2sc3c(c2c(=O)n1C)CCCC3
Reported Result: 9.9
//
Compound: CCSC1=C(C=O)CCc2c1sc1nc3n(c(=O)c21)CCCCC3
Reported Result: 100

###

- Measured On: 17β-hydroxysteroid dehydrogenase type 3 (Homo sapiens)
- Construct: expressed in transfected cells; host or cells: MCF-7
- Protocol Details: Inhibition of 17β-HSD type 3 in MCF-7 cells stably expressing the isoenzyme (HPLC, tritium labeled androstenedione)
- Format: cell-based
- Experimental Context: MCF7, 1 μM compound, 2 nM androstenedione, read-out: % Inhibition of the 17β-HSD enzyme type 3 (HSD3)

Compound: O=c1c2c3c(sc2nc2n1CCC2)CCCC3 [Compound 2f]
inhibition at 1 µM / %: 48.2

Compound: CCCSC1=C(C=O)CCc2c1sc1nc3n(c(=O)c21)CCC(C(=O)OC)CC3 (stereo not drawn) [Compound 23]
inhibition at 1 µM / %: 19.5

Compound: O=c1c2c3c(sc2nc2n1CCC(CO)CC2)CCCC3 (stereo not drawn) [Compound 35]
inhibition at 1 µM / %: 16.2

Compound: CC(C)SC1=C(C=O)CCc2c1sc1nc3n(c(=O)c21)CCCCC3 [Compound 5e]
inhibition at 1 µM / %: 50.8

Compound: CCOC(=O)C1CCc2nc3sc4c(c3c(=O)n2CC1)CCCC4 (stereo not drawn) [Compound 16]
inhibition at 1 µM / %: 13.6

Compound: O=C1CCc2c1sc1nc3n(c(=O)c21)CCCCC3 [Compound 3b]
inhibition at 1 µM / %: 0.3

Compound: CC1CCc2nc3sc4c(c3c(=O)n2CC1)CCCC4 (stereo not drawn) [Compound 14]
inhibition at 1 µM / %: 27.6

Compound: O=CC1=C([S+]([O-])c2ccccc2)c2sc3nc4n(c(=O)c3c2CC1)CCCCC4 (stereo not drawn) [Compound 30]
inhibition at 1 µM / %: 11.1

Compound: CC(C)(C)C1CCc2c(sc3nc4n(c(=O)c23)CCCCC4)C1 (stereo not drawn) [Compound 29]
inhibition at 1 µM / %: 14.9

Compound: Cn1cnc2sc3c(c2c1=O)CCC(C=O)=C3Cl [Compound 4e]
inhibition at 1 µM / %: 9.8

Compound: O=c1c2c3c(sc2nc2n1CCCCC2)C(Sc1ccccc1)=C(CO)CC3 [Compound 6a]
inhibition at 1 µM / %: 45.9

Compound: CCCSC1=C(C=O)CCc2c1sc1nc3n(c(=O)c21)CCC(C(=O)OCC)CC3 (stereo not drawn) [Compound 22]
inhibition at 1 µM / %: 25.5

###

- Measured On: 17β-hydroxysteroid dehydrogenase type 3 (Homo sapiens, UniProt P37058)
- Construct: expressed in transfected cells; host or cells: MCF-7
- Protocol Details: Inhibition of 17β-HSD type 3 in MCF-7 cells stably expressing the isoenzyme (HPLC, tritium labeled androstenedione)
- Format: cell-based
- Experimental Context: MCF7, 1 μM compound, 2 nM androstenedione, read-out: % Inhibition of the 17β-HSD enzyme type 3 (HSD3)
inhibition at 1 µM vs 20%: at or above is label 1, below is label 0.

Compound: CCOC(=O)C1CCCn2c1nc1sc3c(c1c2=O)CCCC3=O (stereo not drawn) [Compound 18]
Classification: label 0
--
Compound: O=c1c2c3c(sc2nc2n1CCCCC2)CCCCC3 [Compound 2c]
Classification: label 1
--
Compound: O=c1c2c3c(sc2nc2n1CCCCCC2)C(O)CCC3 (stereo not drawn) [Compound 13]
Classification: label 0
--
Compound: CC1CCc2nc3sc4c(c3c(=O)n2CC1)CCC(C=O)=C4Cl (stereo not drawn) [Compound 20]
Classification: label 1
--
Compound: CC1CCc2nc3sc4c(c3c(=O)n2CC1)CCCC4=O (stereo not drawn) [Compound 17]
Classification: label 1
--
Compound: O=C1CCCc2c1sc1nc3n(c(=O)c21)CCCC3 [Compound 3e]
Classification: label 1
--
Compound: O=Cc1ccc2c(sc3nc4n(c(=O)c32)CCCCC4)c1Sc1ccccc1 [Compound 12]
Classification: label 0
--
Compound: CCOC(=O)C1CCc2nc3sc4c(c3c(=O)n2CC1)CCCC4=O (stereo not drawn) [Compound 19]
Classification: label 0

###

- Measured On: 17β-hydroxysteroid dehydrogenase type 1 (Homo sapiens)
- Construct: expressed in transfected cells; host or cells: MCF-7
- Sequence (P14061 1-328): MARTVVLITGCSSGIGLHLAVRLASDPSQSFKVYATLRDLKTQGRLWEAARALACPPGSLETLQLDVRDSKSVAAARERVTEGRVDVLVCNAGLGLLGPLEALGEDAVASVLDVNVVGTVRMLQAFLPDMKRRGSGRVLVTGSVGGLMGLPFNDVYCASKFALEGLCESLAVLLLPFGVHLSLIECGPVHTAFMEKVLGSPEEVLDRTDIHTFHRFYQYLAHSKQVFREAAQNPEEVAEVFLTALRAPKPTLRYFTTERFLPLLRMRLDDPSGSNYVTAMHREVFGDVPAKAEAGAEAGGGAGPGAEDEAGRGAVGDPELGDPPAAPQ
- Protocol Details: Inhibition of 17β-HSD type 1 in MCF-7 cells stably expressing the isoenzyme (HPLC, tritium labeled estrone)
- Type: cell-based
- Experimental Context: MCF7, 10 μM compound, 2 nM estrone, read-out: % Inhibition of the 17β-HSD enzyme type 1 (HSD1)
Reported Property: inhibition at 10 µM (%)

Molecule: O=CC1=C(Cl)c2sc3nc4n(c(=O)c3c2CC1)CCCCCC4
Reported Property: inhibition at 10 µM
Reported Result: 82.1
--
Molecule: O=c1c2c3c(sc2nc2n1CCCCC2)C(Sc1ccccc1)=C(CO)CC3
Reported Property: inhibition at 10 µM
Reported Result: 100
--
Molecule: O=C1CCCc2c1sc1nc3ccccn3c(=O)c21
Reported Property: inhibition at 10 µM
Reported Result: -0.8
--
Molecule: CCOC(=O)C1CCc2nc3sc4c(c3c(=O)n2CC1)CCC(C=O)=C4Cl (stereo not drawn)
Reported Property: inhibition at 10 µM
Reported Result: 33.5
--
Molecule: O=Cc1ccc2c(sc3nc4n(c(=O)c32)CCCCC4)c1Sc1ccccc1
Reported Property: inhibition at 10 µM
Reported Result: 87.9
--
Molecule: O=C1CCCc2c1sc1nc3n(c(=O)c21)CCC3
Reported Property: inhibition at 10 µM
Reported Result: 22

Origin of measurements: patent US7754709B2
